meta.source: the Deep4Chem optical property database

Assay: photoluminescence quantum yield (fraction); solvent given as SMILES
Conditions: in CO
attribute measured: photoluminescence quantum yield
Output spec: single numeric token, no unit.

smiles record: CC(=O)c1ccc2ccc3cccc4ccc1c2c34
photoluminescence quantum yield: 0.014

IN: Give the measured photoluminescence quantum yield of COc1ccc2cc3c(C)cc(=O)oc3cc2c1 .
OUT: 0.21

IN: Give the measured photoluminescence quantum yield of CCCN1/C(=C/C=C(/C=C/C2=[N+](CCC)c3ccccc3C2(C)C)c2ccncc2)C(C)(C)c2ccccc21 .
OUT: 0.24

IN: Give the measured photoluminescence quantum yield of COC(=O)C[C@H](NC(=O)[C@H](Cc1c[nH]c2ccccc12)NC(=O)OC(C)(C)C)C(=O)OC .
OUT: 0.27

IN: Give the measured photoluminescence quantum yield of CN(C)c1ccc2c(c1)Cc1ccccc1-2 .
OUT: 0.2

IN: Give the measured photoluminescence quantum yield of CC1=[N+]2C(=C(c3ccc(N4CCOCC4)cc3)c3ccc(C)n3[B-]2(F)F)C=C1 .
OUT: 0.005

====

Test: photoluminescence quantum yield (fraction); solvent given as SMILES
Conditions: in ClCCl
Let's look at some compounds and their measured photoluminescence quantum yield.
Output spec: single numeric token, no unit.

smiles record: CC1(C)c2ccccc2-c2sc3ccccc3c21
recorded number: 0.11
//
smiles record: O=C1c2cccc3c(-n4c5ccccc5c5ccccc54)ccc(c23)C(=O)N1C1CCCCC1
recorded number: 0.03

IN: Give the measured photoluminescence quantum yield of O=C1c2ccccc2-c2nc3ccccc3n21 .
OUT: 0.04

====

Experiment: photoluminescence quantum yield (fraction); solvent given as SMILES
Details: in CCCCCC
Let's look at some compounds and their measured photoluminescence quantum yield.
Output spec: single numeric token, no unit.

// solved cases for photoluminescence quantum yield follow
compound: CCCCCCCCCCCCN1C(=O)c2cccc3c(N(Cc4ccccn4)Cc4ccccn4)c4ccccc4c(c23)C1=O
photoluminescence quantum yield: 0.06
//
compound: Cc1c(C2=[N+]3C(=Cc4c(C)c5ccccc5n4[B-]3(F)F)c3ccccc32)[nH]c2ccccc12
photoluminescence quantum yield: 0.14
//
compound: COC(=O)C(Cc1ccc2oc(-c3ccc(N(C)c4ccccc4)cc3)nc2c1)NC(=O)OC(C)(C)C (stereo not drawn)
photoluminescence quantum yield: 1
//
compound: CC(C)[Si](C#Cc1c2ccccc2c(C#C[Si](C(C)C)(C(C)C)C(C)C)c2nc3c(nc12)Cc1ccccc1-3)(C(C)C)C(C)C
photoluminescence quantum yield: 0.47
//
compound: c1cc2ccc3cccc4c(-c5cc(-c6nccs6)nc(-c6nccs6)c5)cc(c1)c2c34
photoluminescence quantum yield: 0.51

IN: Give the measured photoluminescence quantum yield of CC(=O)c1ccc2ccc3cccc4ccc1c2c34 .
OUT: 0.002

IN: Give the measured photoluminescence quantum yield of CC(C)[Si](C#Cc1c2nsnc2c(C#C[Si](C(C)C)(C(C)C)C(C)C)c2nc3c(ccc4cc5ccccc5cc43)nc12)(C(C)C)C(C)C .
OUT: 0.13

IN: Give the measured photoluminescence quantum yield of CC(C)[Si](C#Cc1ccc(C#C[Si](C(C)C)(C(C)C)C(C)C)c2nc3c(ccc4cc5ccccc5cc43)nc12)(C(C)C)C(C)C .
OUT: 0.37

====

Let's look at some compounds and their measured photoluminescence quantum yield.
Test: photoluminescence quantum yield (fraction); solvent given as SMILES
Conditions: in CCOC(C)=O
Output spec: single numeric token, no unit.

IN: Give the measured photoluminescence quantum yield of CCOC(=O)/C(C#N)=C\c1ccc2c(c1)c1ccccc1n2-c1ccc(OC)cc1 .
OUT: 0.08
